- Test system: SMN protein
- experimental.protocol: cellular SMN ELISA (SMN protein elevation)
- Type: cell-based
- condition.context: myoblast cell line derived from SMNdelta7 mouse model; 24 hours compound treatment; concentration range 100 pM-10 uM
Records here are stratified by EC50; strata: low value: < 70 nM; medium value: ≥ 70 nM and < 300 nM; high value: ≥ 300 nM

compound: CN(c1nnc(-c2cc3ccc(O)cc3cc2O)s1)C1CC(C)(C)NC(C)(C)C1
assigned.label: low value
//
compound: Cn1cc(-c2ccc(-c3nnc(OC4CC(C)(C)NC(C)(C)C4)s3)c(Cl)c2)cn1
assigned.label: high value
//
compound: COc1cc(-n2cccn2)ccc1-c1nnc(C2=CCNCC2)s1
assigned.label: high value
//
compound: COc1cc(-c2cnn(C)c2)ccc1-c1nnc(N2CC3(CCCNC3)C2)s1
assigned.label: medium value
//
compound: Cc1nc(C)c(-c2ccc(-c3nnc(N(C)C4CC(C)(C)NC(C)(C)C4)s3)c(F)c2F)s1
assigned.label: high value
//
compound: CN(c1nnc(-c2ncc(-c3cn[nH]c3)cc2F)s1)C1CC(C)(C)NC(C)(C)C1
assigned.label: high value
//
compound: COc1cc(-c2cnn(C)c2)ccc1-c1nnc(N2CC3(CCNCC3)C2)s1
assigned.label: medium value
//
compound: CN1C[C@@H]2CN(c3nnc(-c4ccc(-c5cnn(C)c5)cc4Cl)s3)C[C@@H]2C1
assigned.label: medium value
//
compound: Oc1ccc2cc(-c3nnc(N4C[C@H]5CNC[C@H]5C4)s3)c(O)cc2c1
assigned.label: high value
//
compound: CN(c1nnc(-c2ccc(-n3cncn3)cc2Cl)s1)C1CC(C)(C)NC(C)(C)C1
assigned.label: medium value
//
compound: COc1nc2ccccc2cc1-c1nnc(N(C)C2CC(C)(C)NC(C)(C)C2)s1
assigned.label: high value
//
compound: CN(c1nnc(-c2cc3cccnc3cc2O)s1)C1CC(C)(C)NC(C)(C)C1
assigned.label: medium value
//
compound: COc1cc(-c2ccn(C)c(=O)c2)ccc1-c1nnc(N(C)C2CC(C)(C)NC(C)(C)C2)s1
assigned.label: medium value
//
compound: COc1ccc2c(c1)CCN(c1nnc(N(C)C3CC(C)(C)NC(C)(C)C3)s1)C2=O
assigned.label: high value
//
compound: CN(c1nnc(-c2ccc(-c3cn[nH]c3)cc2F)s1)C1CC(C)(C)NC(C)(C)C1
assigned.label: low value
//
compound: COc1cc(-n2cccn2)ccc1-c1nnc(N(C)C2CC(C)(C)NC(C)(C)C2)s1
assigned.label: low value
//
compound: CN(c1nnc(-c2ccc(-n3cccn3)cc2O)s1)C1CC(C)(C)NC(C)(C)C1
assigned.label: medium value
//
compound: CN(c1nnc(-c2ccc(C#N)cc2F)s1)C1CC(C)(C)NC(C)(C)C1
assigned.label: high value
//
compound: CN(c1nnc(-c2cc(F)c(-c3cn[nH]c3)cc2F)s1)C1CC(C)(C)NC(C)(C)C1
assigned.label: low value
//
compound: CN(c1nnc(-c2ccc(-c3cn[nH]c3)cc2Cl)s1)C1CC(C)(C)NC(C)(C)C1
assigned.label: low value
//
compound: Cn1cc(-c2ccc(-c3nnc(N4CC5(CCNCC5)C4)s3)c(O)c2)cn1
assigned.label: low value
//
compound: CN(c1nnc(-c2sc3ccccc3c2Cl)s1)C1CC(C)(C)NC(C)(C)C1
assigned.label: high value
//
compound: CN(c1nnc(-c2c(O)cc(-c3ccn(C)c(=O)c3)cc2OC(F)(F)F)s1)C1CC(C)(C)NC(C)(C)C1
assigned.label: low value
//
compound: COc1cc(-c2ccc(-c3nnc(N(C)C4CC(C)(C)NC(C)(C)C4)s3)c(OC)c2)ccn1
assigned.label: low value
//
compound: CN(c1nnc(-c2cc3ccccc3cc2O)s1)C1CC(C)(C)NC(C)(C)C1
assigned.label: medium value
//
compound: Cn1cc(-c2ccc(-c3nnc(NC4CC(C)(C)NC(C)(C)C4)s3)c(Cl)c2)cn1
assigned.label: medium value
//
compound: CN(c1nnc(-c2ccc(-c3cnn(C)c3)cc2O)s1)C1CC(C)(C)NC(C)(C)C1
assigned.label: low value
//
compound: CN(c1nnc(-c2cc(-c3ccnc(N)n3)ccc2Cl)s1)C1CC(C)(C)NC(C)(C)C1
assigned.label: medium value
//
compound: COc1cc(-c2cn[nH]c2)cc(F)c1-c1nnc(N2C[C@H]3CN(C)C[C@H]3C2)s1
assigned.label: high value
//
compound: CN(c1nnc(-c2ccc(-c3ccn(C)c(=O)c3)cc2Cl)s1)C1CC(C)(C)NC(C)(C)C1
assigned.label: low value
//
compound: Cc1nc(C)c(-c2cc(F)c(-c3nnc(N(C)C4CC(C)(C)NC(C)(C)C4)s3)cc2F)s1
assigned.label: high value

Source of measurements: patent US9040712B2
